- System Tested: BRAF V600E (Homo sapiens, UniProt P15056, V600E)
- Construct: expressed in transfected cells
- Sequence (P15056 whole entry V600E): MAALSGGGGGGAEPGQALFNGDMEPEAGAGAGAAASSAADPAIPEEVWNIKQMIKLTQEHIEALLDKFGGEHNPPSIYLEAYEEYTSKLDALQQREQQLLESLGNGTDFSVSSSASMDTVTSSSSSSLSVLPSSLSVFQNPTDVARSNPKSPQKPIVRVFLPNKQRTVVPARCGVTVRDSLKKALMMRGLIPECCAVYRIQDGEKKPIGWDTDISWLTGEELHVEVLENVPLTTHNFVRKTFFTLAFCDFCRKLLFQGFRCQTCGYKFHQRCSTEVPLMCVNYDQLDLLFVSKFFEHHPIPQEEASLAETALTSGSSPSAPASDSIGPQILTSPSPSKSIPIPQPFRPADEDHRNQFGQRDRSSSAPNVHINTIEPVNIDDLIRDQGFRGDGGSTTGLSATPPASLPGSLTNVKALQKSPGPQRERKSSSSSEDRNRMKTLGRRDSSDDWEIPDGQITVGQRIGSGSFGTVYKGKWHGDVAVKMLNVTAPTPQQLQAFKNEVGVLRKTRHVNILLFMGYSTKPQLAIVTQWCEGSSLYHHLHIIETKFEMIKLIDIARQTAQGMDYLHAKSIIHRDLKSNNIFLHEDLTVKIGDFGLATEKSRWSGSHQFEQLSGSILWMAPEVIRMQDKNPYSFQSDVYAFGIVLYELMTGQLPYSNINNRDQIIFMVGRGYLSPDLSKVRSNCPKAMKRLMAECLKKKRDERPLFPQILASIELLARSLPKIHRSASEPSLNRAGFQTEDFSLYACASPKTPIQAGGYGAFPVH
- Protocol Details: Cellular assay of target protein degradation, T-Rex 293 cells stably transfected with HA-BRAF_V600E (HA immunofluorescence, high content imaging)
- Format: cell-based
- Measurement Parameters: maximum degradation observed, T-Rex 293 HA-BRAF V600E
Measurement Type: Dmax

Exercise: Please give the measured Dmax for this compound: O=C1CCC(N2Cc3cc(N4CCC(CN5CCN(Cc6ncc(-c7cnc8[nH]cc(C(=O)c9c(F)ccc(NS(=O)(=O)N%10CC[C@@H](F)C%10)c9F)c8c7)cn6)CC5)CC4)ccc3C2=O)C(=O)N1 (some centres unmarked)
Solution: > 70%

Exercise: Please give the measured Dmax for this compound: O=C1CCC(N2Cc3cc(N4CCN(CCCC5CCN(c6ccc(-c7cnc8[nH]cc(C(=O)c9c(F)ccc(NS(=O)(=O)N%10CC[C@@H](F)C%10)c9F)c8c7)cc6)CC5)CC4)ccc3C2=O)C(=O)N1 (some centres unmarked)
Solution: 35 to 70%

Exercise: Please give the measured Dmax for this compound: "O=C1CC[C@H](N2Cc3cc([C@H](O)CCN4CCC(c5ccc(-c6cnc7[nH]cc(C(=O)c8c(F)ccc(NS(=O)(=O)N9CC[C@@H](F)C9)c8F)c7c6)cc5)CC4)ccc3C2=O)C(=O)N1"
Solution: 35 to 70%

Exercise: Please give the measured Dmax for this compound: O=C1CCC(N2Cc3cc(N4CCC(CN5CC6(CCN(c7ccc(-c8cnc9[nH]cc(C(=O)c%10c(F)ccc(NS(=O)(=O)N%11CC[C@@H](F)C%11)c%10F)c9c8)cc7F)C6)C5)CC4)ccc3C2=O)C(=O)N1 (some centres unmarked)
Solution: 35 to 70%

Exercise: Please give the measured Dmax for this compound: "O=C1CC[C@@H](N2Cc3cc(C[C@H](O)CN4CCN(c5ccc(-c6cnc7[nH]cc(C(=O)c8c(F)ccc(NS(=O)(=O)N9CC[C@@H](F)C9)c8F)c7c6)cc5)CC4)ccc3C2=O)C(=O)N1"
Solution: 35 to 70%

* * *

- System Tested: BRAF G466V (Homo sapiens, UniProt P15056, G466V)
- Construct: expressed in transfected cells
- Sequence (P15056 whole entry G466V): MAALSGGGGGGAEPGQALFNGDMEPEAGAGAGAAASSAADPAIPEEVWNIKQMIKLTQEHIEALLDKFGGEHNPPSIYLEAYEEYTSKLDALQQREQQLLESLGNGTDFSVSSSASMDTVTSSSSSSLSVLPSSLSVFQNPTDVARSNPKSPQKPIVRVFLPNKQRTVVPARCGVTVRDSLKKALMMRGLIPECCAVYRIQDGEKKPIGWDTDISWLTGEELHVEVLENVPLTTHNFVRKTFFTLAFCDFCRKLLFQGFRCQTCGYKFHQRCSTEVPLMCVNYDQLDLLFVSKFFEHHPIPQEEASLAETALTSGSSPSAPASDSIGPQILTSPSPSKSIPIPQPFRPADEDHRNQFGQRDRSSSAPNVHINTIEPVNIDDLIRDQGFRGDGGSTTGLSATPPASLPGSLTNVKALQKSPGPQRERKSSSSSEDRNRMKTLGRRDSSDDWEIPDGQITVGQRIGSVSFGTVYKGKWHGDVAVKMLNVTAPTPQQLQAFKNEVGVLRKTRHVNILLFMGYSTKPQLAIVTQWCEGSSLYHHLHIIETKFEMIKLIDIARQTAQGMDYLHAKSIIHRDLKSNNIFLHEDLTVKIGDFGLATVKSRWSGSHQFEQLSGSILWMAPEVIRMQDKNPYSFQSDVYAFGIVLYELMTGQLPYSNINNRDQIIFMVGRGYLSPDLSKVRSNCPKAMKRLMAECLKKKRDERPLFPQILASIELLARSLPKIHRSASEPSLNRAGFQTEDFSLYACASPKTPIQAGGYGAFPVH
- Protocol Details: Cellular assay of target protein degradation, T-Rex 293 cells stably transfected with HA-BRAF G466V (HA immunofluorescence, high content imaging)
- Type: cell-based
- Measurement Parameters: half maximal degradation, T-Rex 293 HA-BRAF G466V; read-out: BRaf G466V DC50
Measurement Type: DC50

Exercise: Entry CC1(c2ccc(C3CCN(CC4CCN(c5ccc(-c6cnc7[nH]cc(C(=O)c8c(F)ccc(NS(=O)(=O)N9CC[C@@H](F)C9)c8F)c7c6)cc5)CC4)CC3)cc2F)CCC(=O)NC1=O (some centres unmarked) , system BRAF G466V (Homo sapiens, UniProt P15056, G466V): what DC50 was measured?
Solution: 1 to 10 nM

Exercise: Entry O=C1CCC(N2Cc3cc(N4CC5(CC(CN6CCc7cc(-c8cnc9[nH]cc(C(=O)c%10c(F)ccc(NS(=O)(=O)N%11CC[C@@H](F)C%11)c%10F)c9c8)ccc7C6)C5)C4)ccc3C2=O)C(=O)N1 (some centres unmarked) , system BRAF G466V (Homo sapiens, UniProt P15056, G466V): what DC50 was measured?
Solution: 10 to 30 nM

Exercise: Entry "O=C1CC[C@H](N2Cc3cc(N4CCN(CC5CCN(c6ccc(-c7cnc8[nH]cc(C(=O)c9c(F)ccc(NS(=O)(=O)N%10CC[C@@H](F)C%10)c9F)c8c7)cc6)CC5)CC4)ccc3C2=O)C(=O)N1" , system BRAF G466V (Homo sapiens, UniProt P15056, G466V): what DC50 was measured?
Solution: 1 to 10 nM

Exercise: Entry C[C@H]1CCCN1S(=O)(=O)Nc1ccc(F)c(C(=O)c2c[nH]c3ncc(-c4ccc(N5CCC(CN6CCC(c7ccc8c(c7)CN(C7CCC(=O)NC7=O)C8=O)CC6)CC5)cc4)cc23)c1F (some centres unmarked) , system BRAF G466V (Homo sapiens, UniProt P15056, G466V): what DC50 was measured?
Solution: 1 to 10 nM

Exercise: Entry O=C1CCC(N2Cc3cc(N4CCC(CN5CCN(C6(c7ccc(-c8cnc9[nH]cc(C(=O)c%10c(F)ccc(NS(=O)(=O)N%11CC[C@@H](F)C%11)c%10F)c9c8)cc7)CC6)CC5)CC4)ccc3C2=O)C(=O)N1 (some centres unmarked) , system BRAF G466V (Homo sapiens, UniProt P15056, G466V): what DC50 was measured?
Solution: 1 to 10 nM
